# Tested Target: UniProt:Q8KIL1
# Method: Effects of metal ions and inhibitors on the SLDH activity
# Assay type: biochemical, Gluconobacter suboxydans IFO 3255
# Design: The SLDH was isolated from the membrane fraction of Gluconobacter suboxydans IFO 3255 (DSM 9715); made in house; host or cells: Gluconobacter suboxydans IFO 3255 (DSM 9715), native source (not recombinant): purified from the solubilized membrane fraction
# Measurement Setup: metal 0.91 mM; percentage of the reaction rate without metal compounds
What Relative activity (%) was measured for each of the following?
Answers are plain numbers, in %.

Solved cases (3 shown):
• O.O.O.O.[Cl][Mn][Cl] = 80
• O.O.O.O=[N+]([O-])[O-].O=[N+]([O-])[O-].[Cu+2] = 0
• O=S(=O)([O-])[O-].[Cu+2] = 0

For the compound [Ca+2].[Cl-].[Cl-] , give its measured Relative activity (%) value.
96

====

# Tested Target: D-sorbitol dehydrogenase (SLDH) (Gluconobacter thailandicus, UniProt Q8KIL1)
# Method: Effects of metal ions and inhibitors on the SLDH activity
# Type: biochemical, Gluconobacter suboxydans IFO 3255
# Parameters: The SLDH was isolated from the membrane fraction of Gluconobacter suboxydans IFO 3255 (DSM 9715); made in house; host or cells: Gluconobacter suboxydans IFO 3255 (DSM 9715), native source (not recombinant): purified from the solubilized membrane fraction
# Measurement Setup: metal 1.79 mM; percentage of the reaction rate without metal compounds
What Relative activity (%) was measured for each of the following?
# number then unit; no other words

- O=S(=O)([O-])[O-].O=S(=O)([O-])[O-].O=S(=O)([O-])[O-].[Fe+3].[Fe+3] [Fe2 (SO4)3.xH2 O]: 0%
- O.O.O.O.[Cl][Mn][Cl] [MnCl2.4H2 O]: 88%
- O.O.O.O.O.O.[Cl-].[Cl-].[Mg+2] [MgCl2.6H2 O]: 92%
- O.O.[Cl][Cu][Cl] [CuCl2.2H2 O]: 0%
- O.O.O.O=[N+]([O-])[O-].O=[N+]([O-])[O-].[Cu+2] [Cu(NO3)2.3H2 O]: 0%

For the 2 compounds below, give their Relative activity (%) values.
1. O.O.O.O.O=[N+]([O-])[O-].O=[N+]([O-])[O-].[Ca+2] [Ca(NO3)2.4H2 O]
2. O=S(=O)([O-])[O-].[Cu+2] [CuSO4]

96%
0%

For the 3 compounds below, give their Relative activity (%) values.
1. O.O.[Na+].[Na+].[O]=[Mo](=[O])([O-])[O-] [Na2 MoO4.2H2 O]
2. O.O.O.O.O.O.O=S(=O)([O-])[O-].[Ni+2] [NiSO4.6H2 O]
3. [Ca+2].[Cl-].[Cl-] [CaCl2]

1. 96%
2. 108%
3. 96%

====

What Relative activity (%) was measured for each of the following?
# Tested Target: D-sorbitol dehydrogenase (SLDH) (Gluconobacter thailandicus, UniProt Q8KIL1)
# Method: Effects of metal ions and inhibitors on the SLDH activity
# Format: biochemical, Gluconobacter suboxydans IFO 3255
# Parameters: The SLDH was isolated from the membrane fraction of Gluconobacter suboxydans IFO 3255 (DSM 9715); made in house; host or cells: Gluconobacter suboxydans IFO 3255 (DSM 9715), native source (not recombinant): purified from the solubilized membrane fraction
# Measurement Setup: metal 1.79 mM; percentage of the reaction rate without metal compounds
One number for each entry, in %.

Solved cases (3 shown):
• O.O.O.O.O.O.[Cl-].[Cl-].[Co+2] = 108
• [Cl-].[Cl-].[Zn+2] = 32
• O.O.O.O.O.O.O.O=S(=O)([O-])[O-].[Zn+2] = 40

Consider now this further compound.
Report Relative activity (%) under test system D-sorbitol dehydrogenase (SLDH) (Gluconobacter thailandicus, UniProt Q8KIL1) for [Cl][Ti]([Cl])([Cl])[Cl] .
88

====

# Tested Target: D-sorbitol dehydrogenase (SLDH) (Gluconobacter thailandicus, UniProt Q8KIL1)
# Sequence (Q8KIL1 30-740): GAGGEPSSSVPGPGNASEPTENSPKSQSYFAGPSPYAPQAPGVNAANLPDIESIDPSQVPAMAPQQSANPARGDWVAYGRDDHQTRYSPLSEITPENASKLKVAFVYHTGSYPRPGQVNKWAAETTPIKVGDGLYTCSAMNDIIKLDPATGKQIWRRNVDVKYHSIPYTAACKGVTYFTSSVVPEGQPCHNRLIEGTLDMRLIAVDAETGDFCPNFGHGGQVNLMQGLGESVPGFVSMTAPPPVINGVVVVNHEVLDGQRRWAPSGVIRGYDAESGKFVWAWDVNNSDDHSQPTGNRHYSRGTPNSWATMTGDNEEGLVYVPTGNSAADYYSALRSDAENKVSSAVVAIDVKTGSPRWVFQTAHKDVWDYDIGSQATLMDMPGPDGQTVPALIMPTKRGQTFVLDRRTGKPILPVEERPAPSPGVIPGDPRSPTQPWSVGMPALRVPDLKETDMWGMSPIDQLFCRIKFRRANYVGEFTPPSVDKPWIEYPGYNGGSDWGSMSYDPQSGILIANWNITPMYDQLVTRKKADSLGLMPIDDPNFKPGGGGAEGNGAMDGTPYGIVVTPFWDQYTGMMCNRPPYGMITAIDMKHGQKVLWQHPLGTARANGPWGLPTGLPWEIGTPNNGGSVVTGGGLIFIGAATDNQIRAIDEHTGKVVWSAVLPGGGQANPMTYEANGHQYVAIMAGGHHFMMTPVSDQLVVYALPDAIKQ
# Method: Effects of metal ions and inhibitors on the SLDH activity
# Assay type: biochemical, Gluconobacter suboxydans IFO 3255
# Parameters: The SLDH was isolated from the membrane fraction of Gluconobacter suboxydans IFO 3255 (DSM 9715); made in house; host or cells: Gluconobacter suboxydans IFO 3255 (DSM 9715), native source (not recombinant): purified from the solubilized membrane fraction
# Measurement Setup: metal 0.91 mM; percentage of the reaction rate without metal compounds
Record Criterion met whenever Relative activity (%) is at 60% or higher; record Criterion not met when lower.

Solved entries (count: 3):
• O.O.O.O.O.O.O=S(=O)([O-])[O-].[Ni+2] [NiSO4.6H2 O] = Criterion met
• O.O.O.O.O=[N+]([O-])[O-].O=[N+]([O-])[O-].[Ca+2] [Ca(NO3)2.4H2 O] = Criterion met
• [Cl][Ti]([Cl])([Cl])[Cl] [TiCl4] = Criterion met

Could you tell me if the measured Relative activity (%) of O.O.[Na+].[Na+].[O]=[Mo](=[O])([O-])[O-] [Na2 MoO4.2H2 O] reaches 60% or more?
Criterion met

Could you tell me if the measured Relative activity (%) of O.O.O.O.O.O.[Cl-].[Cl-].[Mg+2] [MgCl2.6H2 O] reaches 60% or more?
Criterion met

Could you tell me if the measured Relative activity (%) of O.O.[Cl][Cu][Cl] [CuCl2.2H2 O] reaches 60% or more?
Criterion not met

Could you tell me if the measured Relative activity (%) of [Cl-].[Cl-].[Zn+2] [ZnCl2] reaches 60% or more?
Criterion not met

Could you tell me if the measured Relative activity (%) of O.O.O.O.O.O.O.O=S(=O)([O-])[O-].[Zn+2] [ZnSO4.7H2 O] reaches 60% or more?
Criterion not met

Could you tell me if the measured Relative activity (%) of O=S(=O)([O-])[O-].O=S(=O)([O-])[O-].O=S(=O)([O-])[O-].[Fe+3].[Fe+3] [Fe2 (SO4)3.xH2 O] reaches 60% or more?
Criterion not met

Could you tell me if the measured Relative activity (%) of O.O.O.O.O.O.[Cl-].[Cl-].[Co+2] [CoCl2.6H2 O] reaches 60% or more?
Criterion met

====

What activity at 100000 µM was measured for each of the following?
# Tested Target: D-sorbitol dehydrogenase (SLDH) (Gluconobacter thailandicus)
# Method: Substrate specificity of the purified D-sorbitol dehydrogenase (DCIP reduction enzyme assay)
# Type: biochemical, Gluconobacter suboxydans IFO 3255
# Set-up: The SLDH was isolated from the membrane fraction of Gluconobacter suboxydans IFO 3255 (DSM 9715); made in house; host or cells: Gluconobacter suboxydans IFO 3255 (DSM 9715), native source (not recombinant): purified from the solubilized membrane fraction
# Measurement Setup: substrate solutions 100 mM; percent of the reaction rate obtained with D-sorbitol; read-out: Relative activity
One number for each entry, in %.

Solved cases (7 shown):
• OC[C@@H](O)[C@@H](O)[C@@H](O)CO = 66.6
• OC[C@H]1O[C@@](CO)(O[C@H]2O[C@H](CO)[C@@H](O)[C@H](O)[C@H]2O)[C@@H](O)[C@@H]1O = 0
• OC[C@@H](O)C(O)[C@H](O)CO = 175
• O=C(CO)[C@@H](O)[C@H](O)[C@H](O)CO = 0
• O=C(CO)[C@@H](O)[C@H](O)[C@@H](O)CO = 0
• OC[C@@H](O)[C@@H](O)CO = 172
• OC[C@@H](O)[C@H](O)[C@@H](O)CO = 0

Consider now this further compound.
For the compound OCC(O)CO , give its measured activity at 100000 µM value.
117
